Data origin, for the record: patent US4404201A

- Test system: Serr. Mar. IMM 16
Doc: threshold 6 µg/mL (exclusive). Items with MIC beneath it return Fulfilled; others return Not fulfilled.

Enquiry: Hello, is MIC of the following molecule strictly smaller than 6 µg/mL? CC(=O)N[C@@H](CCC(N)=O)C(=O)Nc1ccc2c(=O)c(C(=O)N[C@@H](C(=O)NC3C(=O)N4C(C(=O)O)=C(COC(C)=O)CSC34)c3ccc(O)cc3)c[nH]c2c1 (some centres unmarked)
Return: Not fulfilled

Enquiry: Regarding CC(=O)N[C@@H](C)C(=O)Nc1ccc2c(=O)c(C(=O)N[C@@H](C(=O)NC3C(=O)N4C(C(=O)O)=C(COC(C)=O)CSC34)c3ccc(O)cc3)c[nH]c2c1 (some centres unmarked) , kindly confirm whether its MIC is beneath 6 µg/mL.
Return: Not fulfilled

Enquiry: Lab note: MIC threshold 6 µg/mL. Does this molecule come in strictly under it? CC(=O)N[C@@H](CCC(N)=O)C(=O)Nc1ccc2c(=O)c(C(=O)N[C@@H](C(=O)NC3C(=O)N4C(C(=O)O)=C(CSc5nnnn5C)CSC34)c3ccc(O)cc3)c[nH]c2c1 (some centres unmarked)
Return: Not fulfilled

Enquiry: Regarding CC(=O)N[C@@H](C)C(=O)Nc1ccc2[nH]c(=O)c(C(=O)N[C@@H](C(=O)NC3C(=O)N4C(C(=O)O)=C(COC(C)=O)CSC34)c3ccc(O)cc3)cc2c1 (some centres unmarked) , kindly confirm whether its MIC is beneath 6 µg/mL.
Return: Not fulfilled

Enquiry: Does the reported MIC of CC(=O)N[C@@H](C)C(=O)Nc1ccc2[nH]cc(C(=O)N[C@@H](C(=O)NC3C(=O)N4C(C(=O)O)=C(CSc5nnnn5C)CSC34)c3ccccc3)c(=O)c2c1 (some centres unmarked) stay below 6 µg/mL?
Return: Not fulfilled

Enquiry: State whether 6 µg/mL exceeds MIC recorded for CC(=O)N[C@@H](C)C(=O)Nc1ccc2c(=O)c(C(=O)N[C@@H](C(=O)NC3C(=O)N4C(C(=O)O)=C(CSc5nnnn5C)CSC34)c3ccc(O)cc3)c[nH]c2c1 (some centres unmarked) .
Return: Fulfilled

Enquiry: Take the molecule Cn1nnnc1SCC1=C(C(=O)O)N2C(=O)C(NC(=O)[C@H](NC(=O)c3c[nH]c4cc(NC(=O)[C@@H]5CCC(=O)N5)ccc4c3=O)c3ccccc3)C2SC1 (some centres unmarked) and say whether its MIC is less than 6 µg/mL.
Return: Not fulfilled

Attention now turns to another entry.
Enquiry: Hello, I'm reviewing records and need to know if MIC of CC(=O)N[C@@H](C)C(=O)Nc1ccc2c(=O)c(C(=O)N[C@@H](C(=O)NC3C(=O)N4C(C(=O)O)=C(CSc5nnnn5CS(=O)(=O)O)CSC34)c3ccccc3)c[nH]c2c1 (some centres unmarked) is below 6 µg/mL. Could you check?
Return: Fulfilled

====

Catalogue of MIC values
- Tested on: Staph UC76
- ASSAY_COMMENT: Minimal Inhibitory Concentration, Staph UC76
- Format: cell-based
- RECORDED_CONDITIONS: sodium salt
Please state the figure in µg/mL; there is no need to write the unit.

Examples with answers:
The molecule CC(=O)N[C@@H](C)C(=O)Nc1ccc2c(=O)c(C(=O)N[C@@H](C(=O)NC3C(=O)N4C(C(=O)O)=C(CSc5nnnn5CS(=O)(=O)O)CSC34)c3ccccc3)c[nH]c2c1 (some centres unmarked) [Example 1] showed MIC equal to 6.3

Value of measured MIC for the entry CC(=O)N[C@@H](C)C(=O)Nc1ccc2[nH]cc(C(=O)N[C@@H](C(=O)NC3C(=O)N4C(C(=O)O)=C(CSc5nnnn5C)CSC34)c3ccccc3)c(=O)c2c1 (some centres unmarked) [Example 7] : 1.6

Notebook: CC(=O)N[C@@H](C)C(=O)Nc1ccc2c(=O)c(C(=O)N[C@@H](C(=O)NC3C(=O)N4C(C(=O)O)=C(CSc5nnnn5C)CSC34)c3ccc(O)cc3)c[nH]c2c1 (some centres unmarked) [Example 2] , MIC read as 3.1

Lab note: CC(=O)N[C@@H](CCC(N)=O)C(=O)Nc1ccc2c(=O)c(C(=O)N[C@@H](C(=O)NC3C(=O)N4C(C(=O)O)=C(COC(C)=O)CSC34)c3ccc(O)cc3)c[nH]c2c1 (some centres unmarked) [Example 4] gave MIC of 3.1

Further cases:
// sample Cn1nnnc1SCC1=C(C(=O)O)N2C(=O)C(NC(=O)[C@H](NC(=O)c3c[nH]c4cc(NC(=O)[C@@H]5CCC(=O)N5)ccc4c3=O)c3ccccc3)C2SC1 (some centres unmarked) [Example 6] , its MIC was 0.8

====

- Tested on: E. Coli Vogel
MEASURE: MIC
Please don't drop the unit; write it after the number.

MIC reading for CC(=O)N[C@@H](CCC(N)=O)C(=O)Nc1ccc2c(=O)c(C(=O)N[C@@H](C(=O)NC3C(=O)N4C(C(=O)O)=C(CSc5nnnn5C)CSC34)c3ccc(O)cc3)c[nH]c2c1 (some centres unmarked) : 0.4 µg/mL

For record CC(=O)N[C@@H](C)C(=O)Nc1ccc2[nH]cc(C(=O)N[C@@H](C(=O)NC3C(=O)N4C(C(=O)O)=C(CSc5nnnn5C)CSC34)c3ccccc3)c(=O)c2c1 (some centres unmarked) the listed MIC is 1.6 µg/mL

Recorded MIC (compound CC(=O)N[C@@H](CCC(N)=O)C(=O)Nc1ccc2c(=O)c(C(=O)N[C@@H](C(=O)NC3C(=O)N4C(C(=O)O)=C(COC(C)=O)CSC34)c3ccc(O)cc3)c[nH]c2c1 (some centres unmarked) ): 0.8 µg/mL

Entry Cn1nnnc1SCC1=C(C(=O)O)N2C(=O)C(NC(=O)[C@H](NC(=O)c3c[nH]c4cc(NC(=O)[C@@H]5CCC(=O)N5)ccc4c3=O)c3ccccc3)C2SC1 (some centres unmarked) — recorded MIC = 0.8 µg/mL

More entries:
Recorded result, CC(=O)N[C@@H](C)C(=O)Nc1ccc2[nH]c(=O)c(C(=O)N[C@@H](C(=O)NC3C(=O)N4C(C(=O)O)=C(COC(C)=O)CSC34)c3ccc(O)cc3)cc2c1 (some centres unmarked) , MIC: 6.3 µg/mL

====

Quick record: MIC, Staph S 18713.
Number only, in µg/mL; omit the unit.

The following molecules have reported results that may help.
In plain terms, CC(=O)N[C@@H](CCC(N)=O)C(=O)Nc1ccc2c(=O)c(C(=O)N[C@@H](C(=O)NC3C(=O)N4C(C(=O)O)=C(CSc5nnnn5C)CSC34)c3ccc(O)cc3)c[nH]c2c1 (some centres unmarked) has a documented MIC of 6.3

Kindly note the recorded MIC for CC(=O)N[C@@H](C)C(=O)Nc1ccc2[nH]c(=O)c(C(=O)N[C@@H](C(=O)NC3C(=O)N4C(C(=O)O)=C(COC(C)=O)CSC34)c3ccc(O)cc3)cc2c1 (some centres unmarked) , which is 6.3

// MIC value for CC(=O)N[C@@H](CCC(N)=O)C(=O)Nc1ccc2c(=O)c(C(=O)N[C@@H](C(=O)NC3C(=O)N4C(C(=O)O)=C(COC(C)=O)CSC34)c3ccc(O)cc3)c[nH]c2c1 (some centres unmarked) : 6.3

response.value for CC(=O)N[C@@H](C)C(=O)Nc1ccc2[nH]cc(C(=O)N[C@@H](C(=O)NC3C(=O)N4C(C(=O)O)=C(CSc5nnnn5C)CSC34)c3ccccc3)c(=O)c2c1 (some centres unmarked) (field: MIC) = 6.3

Briefly, MIC measured for CC(=O)N[C@@H](C)C(=O)Nc1ccc2c(=O)c(C(=O)N[C@@H](C(=O)NC3C(=O)N4C(C(=O)O)=C(COC(C)=O)CSC34)c3ccc(O)cc3)c[nH]c2c1 (some centres unmarked) : 6.3

Next:
Value of MIC reported for the molecule CC(=O)N[C@@H](C)C(=O)Nc1ccc2c(=O)c(C(=O)N[C@@H](C(=O)NC3C(=O)N4C(C(=O)O)=C(CSc5nnnn5CS(=O)(=O)O)CSC34)c3ccccc3)c[nH]c2c1 (some centres unmarked) is 12.5

Measured MIC of CC(=O)N[C@@H](C)C(=O)Nc1ccc2c(=O)c(C(=O)N[C@@H](C(=O)NC3C(=O)N4C(C(=O)O)=C(CSc5nnnn5C)CSC34)c3ccc(O)cc3)c[nH]c2c1 (some centres unmarked) : 6.3

Sure, the documented MIC for Cn1nnnc1SCC1=C(C(=O)O)N2C(=O)C(NC(=O)[C@H](NC(=O)c3c[nH]c4cc(NC(=O)[C@@H]5CCC(=O)N5)ccc4c3=O)c3ccccc3)C2SC1 (some centres unmarked) is 3.1

====

- System: E. Coli Vogel
MEASURE: MIC (µg/mL)
Value expressed in µg/mL; do not type the unit.

Reference set, count: 2
Bench note, E. Coli Vogel: entry CC(=O)N[C@@H](C)C(=O)Nc1ccc2c(=O)c(C(=O)N[C@@H](C(=O)NC3C(=O)N4C(C(=O)O)=C(CSc5nnnn5CS(=O)(=O)O)CSC34)c3ccccc3)c[nH]c2c1 (stereo partly drawn) , its MIC = 0.8

Form field, MIC with E. Coli Vogel, item CC(=O)N[C@@H](C)C(=O)Nc1ccc2c(=O)c(C(=O)N[C@@H](C(=O)NC3C(=O)N4C(C(=O)O)=C(COC(C)=O)CSC34)c3ccc(O)cc3)c[nH]c2c1 (stereo partly drawn) : 1.6

Below: the item to evaluate.
Tested on E. Coli Vogel, the item CC(=O)N[C@@H](C)C(=O)Nc1ccc2c(=O)c(C(=O)N[C@@H](C(=O)NC3C(=O)N4C(C(=O)O)=C(CSc5nnnn5C)CSC34)c3ccc(O)cc3)c[nH]c2c1 (stereo partly drawn) showed MIC equal to 0.4
